assay: leaching of Japan cedar blocks treated with LSA and chemical agents (Example 4)
Format: physicochemical
experimental_context: in the presence of enzyme, 5% LSA, Japan cedar, pH of treating agent 8.1-8.8
In this section, each of the molecules is paired with its reported Elution Rate (%) LSA.
attribute_measured: Elution Rate (%) LSA

>  <molecule>
CC1=CC[C@@H]2C[C@H]1C2(C)C [500 ppm (1R)-(+)-α-pinene, (1R)-(+)-α-pinene]

>  <experimental_value>
0.6

$$$$
>  <molecule>
CC(C)c1cccc(=O)c(O)c1

>  <experimental_value>
0.6

$$$$
>  <molecule>
C=CCN=C=S [100 ppm Allyl isothiocyanate, Allyl isothiocyanate]

>  <experimental_value>
3.5

$$$$
>  <molecule>
O=C(OC[C@H]1O[C@@H](OC(=O)c2cc(O)c(O)c(OC(=O)c3cc(O)c(O)c(O)c3)c2)[C@H](OC(=O)c2cc(O)c(O)c(OC(=O)c3cc(O)c(O)c(O)c3)c2)[C@@H](OC(=O)c2cc(O)c(O)c(OC(=O)c3cc(O)c(O)c(O)c3)c2)[C@@H]1OC(=O)c1cc(O)c(O)c(OC(=O)c2cc(O)c(O)c(O)c2)c1)c1cc(O)c(O)c(OC(=O)c2cc(O)c(O)c(O)c2)c1

>  <experimental_value>
3.8

$$$$
>  <molecule>
Cc1cc2cccc(C)c2cc1C

>  <experimental_value>
0.8

$$$$
>  <molecule>
CC(C)=CCCC(C)=CC=O

>  <experimental_value>
2.5

$$$$
>  <molecule>
CC(C)=CCCC(C)CCO (centres unmarked)

>  <experimental_value>
0.7

$$$$
>  <molecule>
O=CC=Cc1ccccc1

>  <experimental_value>
1.5

$$$$

====

In this section, each of the compounds is paired with its reported Elution Rate (%) Chemical Agent.
assay: leaching of cypress blocks, bilirubin oxidase (Example 6)
Assay type: physicochemical
experimental_context: pH 8.1-8.8, species as bracketed (Copper, Zinc, Nickel, Boron, H = hinokitiol), else the agent named
attribute_measured: Elution Rate (%) Chemical Agent

>  <compound>
O=CC=Cc1ccccc1

>  <experimental_value>
2.1

$$$$
>  <compound>
OB(O)O

>  <experimental_value>
26.2

$$$$
>  <compound>
Nc1ccccc1N

>  <experimental_value>
0.6

$$$$
>  <compound>
CC12CCC(CC1)C(C)(C)O2

>  <experimental_value>
0.6

$$$$
>  <compound>
C=CCN=C=S [100 ppm Allyl isothiocyanate, Allyl isothiocyanate]

>  <experimental_value>
7.8

$$$$
>  <compound>
CC(C)c1cccc(=O)c(O)c1

>  <experimental_value>
5.4

$$$$
>  <compound>
CC1CCC(C(C)C)C(O)C1 [500 ppm (1R,2S,5R)-(−)-menthol, (1R,2S,5R)-(−)-menthol]

>  <experimental_value>
1.3

$$$$
>  <compound>
O=C(OC[C@H]1O[C@@H](OC(=O)c2cc(O)c(O)c(OC(=O)c3cc(O)c(O)c(O)c3)c2)[C@H](OC(=O)c2cc(O)c(O)c(OC(=O)c3cc(O)c(O)c(O)c3)c2)[C@@H](OC(=O)c2cc(O)c(O)c(OC(=O)c3cc(O)c(O)c(O)c3)c2)[C@@H]1OC(=O)c1cc(O)c(O)c(OC(=O)c2cc(O)c(O)c(O)c2)c1)c1cc(O)c(O)c(OC(=O)c2cc(O)c(O)c(O)c2)c1

>  <experimental_value>
8.3

$$$$
>  <compound>
CC(C)=CCCC(C)CCO (stereo not shown)

>  <experimental_value>
0.8

$$$$
>  <compound>
Cc1cc2cccc(C)c2cc1C

>  <experimental_value>
0.3

$$$$
>  <compound>
CC1=CC[C@@H]2C[C@H]1C2(C)C [500 ppm (1R)-(+)-α-pinene, (1R)-(+)-α-pinene]

>  <experimental_value>
1.2

$$$$
>  <compound>
CC(C)=CCCC(C)=CC=O

>  <experimental_value>
6.0

$$$$
>  <compound>
CC1=CCC(C(C)(C)O)CC1 (stereo not shown)

>  <experimental_value>
1.4

$$$$

====

assay: leaching of cypress blocks, bilirubin oxidase (Example 6)
Format: physicochemical
experimental_context: pH 8.1-8.8
Just a reminder that ties go to no (0): only Elution Rate (%) LSA strictly below 3% counts as yes (1).

>  <molecule>
CC(C)=CCCC(C)=CC=O

>  <classification>
no (0)

$$$$
>  <molecule>
CC12CCC(CC1)C(C)(C)O2

>  <classification>
yes (1)

$$$$
>  <molecule>
CC1=CC[C@@H]2C[C@H]1C2(C)C [500 ppm (1R)-(+)-α-pinene, (1R)-(+)-α-pinene]

>  <classification>
yes (1)

$$$$
>  <molecule>
OB(O)O

>  <classification>
no (0)

$$$$
>  <molecule>
Nc1ccccc1N

>  <classification>
yes (1)

$$$$
>  <molecule>
O=CC=Cc1ccccc1

>  <classification>
no (0)

$$$$
>  <molecule>
CC1CCC(C(C)C)C(O)C1 [500 ppm (1R,2S,5R)-(−)-menthol, (1R,2S,5R)-(−)-menthol]

>  <classification>
yes (1)

$$$$
>  <molecule>
O=C(OC[C@H]1O[C@@H](OC(=O)c2cc(O)c(O)c(OC(=O)c3cc(O)c(O)c(O)c3)c2)[C@H](OC(=O)c2cc(O)c(O)c(OC(=O)c3cc(O)c(O)c(O)c3)c2)[C@@H](OC(=O)c2cc(O)c(O)c(OC(=O)c3cc(O)c(O)c(O)c3)c2)[C@@H]1OC(=O)c1cc(O)c(O)c(OC(=O)c2cc(O)c(O)c(O)c2)c1)c1cc(O)c(O)c(OC(=O)c2cc(O)c(O)c(O)c2)c1

>  <classification>
no (0)

$$$$
>  <molecule>
CC1=CCC(C(C)(C)O)CC1 (stereo not shown)

>  <classification>
yes (1)

$$$$
>  <molecule>
C=CCN=C=S [100 ppm Allyl isothiocyanate, Allyl isothiocyanate]

>  <classification>
no (0)

$$$$
>  <molecule>
CC(C)=CCCC(C)CCO (stereo not shown)

>  <classification>
yes (1)

$$$$
>  <molecule>
Cc1cc2cccc(C)c2cc1C

>  <classification>
yes (1)

$$$$
>  <molecule>
CC(C)c1cccc(=O)c(O)c1

>  <classification>
yes (1)

$$$$

====

assay: leaching of Japan cedar blocks treated with LSA and chemical agents (Example 4)
Assay type: physicochemical
experimental_context: in the absence of enzyme (comparison), 5% LSA, pH 8.1-8.8; species measured as bracketed (Copper, Zinc, Nickel, Boron, H = hinokitiol), else the agent named
attribute_measured: Elution Rate (%) Chemical Agent

>  <molecule>
O=CC=Cc1ccccc1

>  <experimental_value>
8.5

$$$$
>  <molecule>
CC1=CCC(C(C)(C)O)CC1 (stereo not drawn)

>  <experimental_value>
9.1

$$$$
>  <molecule>
CC(C)=CCCC(C)=CC=O

>  <experimental_value>
7.1

$$$$
>  <molecule>
OB(O)O

>  <experimental_value>
32.3

$$$$
>  <molecule>
C=CCN=C=S [100 ppm Allyl isothiocyanate, Allyl isothiocyanate]

>  <experimental_value>
7.5

$$$$
>  <molecule>
Nc1ccccc1N

>  <experimental_value>
5.3

$$$$
>  <molecule>
CC(C)=CCCC(C)CCO (stereo not drawn)

>  <experimental_value>
6.8

$$$$
>  <molecule>
CC1CCC(C(C)C)C(O)C1 [500 ppm (1R,2S,5R)-(−)-menthol, (1R,2S,5R)-(−)-menthol]

>  <experimental_value>
7.5

$$$$
>  <molecule>
CC1=CC[C@@H]2C[C@H]1C2(C)C [500 ppm (1R)-(+)-α-pinene, (1R)-(+)-α-pinene]

>  <experimental_value>
7.3

$$$$

====

assay: leaching of Japan cedar blocks treated with LSA and chemical agents (Example 4)
Format: physicochemical
experimental_context: in the presence of enzyme, 5% LSA, Japan cedar, pH of treating agent 8.1-8.8

>  <compound>
CC1CCC(C(C)C)C(O)C1 [500 ppm (1R,2S,5R)-(−)-menthol, (1R,2S,5R)-(−)-menthol]

>  <Elution Rate (%) LSA>
0.5

$$$$
>  <compound>
CC12CCC(CC1)C(C)(C)O2 [500 ppm cineole, cineole]

>  <Elution Rate (%) LSA>
0.5

$$$$
>  <compound>
OB(O)O [1% Boric acid, Boric acid]

>  <Elution Rate (%) LSA>
0.7

$$$$
>  <compound>
CC1=CCC(C(C)(C)O)CC1 (stereo not drawn) [500 ppm α-terpineol, α-terpineol]

>  <Elution Rate (%) LSA>
0.7

$$$$
>  <compound>
Nc1ccccc1N [200 ppm o-Phenylenediamine, o-Phenylenediamine]

>  <Elution Rate (%) LSA>
1.0

$$$$

====

assay: leaching of Japan cedar blocks treated with LSA and chemical agents (Example 4)
Type: physicochemical
experimental_context: in the absence of enzyme (comparison), 5% LSA, pH 8.1-8.8; species measured as bracketed (Copper, Zinc, Nickel, Boron, H = hinokitiol), else the agent named
attribute_measured: Elution Rate (%) Chemical Agent

>  <molecule>
Cc1cc2cccc(C)c2cc1C [10 ppm 2,3,5-Trimethylnaphthalene, 2,3,5-Trimethylnaphthalene]

>  <experimental_value>
5.6

$$$$
>  <molecule>
CC12CCC(CC1)C(C)(C)O2 [500 ppm cineole, cineole]

>  <experimental_value>
6.2

$$$$
>  <molecule>
CC(C)c1cccc(=O)c(O)c1 [1000 ppm Hinokitiol, Hinokitiol]

>  <experimental_value>
14.4

$$$$
>  <molecule>
O=C(OC[C@H]1O[C@@H](OC(=O)c2cc(O)c(O)c(OC(=O)c3cc(O)c(O)c(O)c3)c2)[C@H](OC(=O)c2cc(O)c(O)c(OC(=O)c3cc(O)c(O)c(O)c3)c2)[C@@H](OC(=O)c2cc(O)c(O)c(OC(=O)c3cc(O)c(O)c(O)c3)c2)[C@@H]1OC(=O)c1cc(O)c(O)c(OC(=O)c2cc(O)c(O)c(O)c2)c1)c1cc(O)c(O)c(OC(=O)c2cc(O)c(O)c(O)c2)c1 [500 ppm Tannic acid, Tannic acid]

>  <experimental_value>
21.0

$$$$

These entries and their values trace back to patent US20030017565A1.
